system: CCRIS mutagenicity, Ames/micronucleus/aberration tests; assay: CCRIS mutagenicity studies; details: Test System: AMES SALMONELLA TYPHIMURIUM; Strain/Indicator: TA100; Metabolic Activation: NONE; Method: STANDARD PLATE
Calls of active or inactive are those of the source. No rule for the calls is given here.
Permitted responses: active, inactive

O=C(O)c1ccc(ON2P(Oc3ccc(C(=O)O)cc3)N=P(Oc3ccc(C(=O)O)cc3)(Oc3ccc(C(=O)O)cc3)N(Oc3ccc(C(=O)O)cc3)P2Oc2ccc(C(=O)O)cc2)cc1 (stereo not drawn): inactive
CNc1ccc(NCCO)c2c1C(=O)c1ccccc1C2=O: inactive
COP(=O)(SC)SC: inactive
C=CC#N: inactive
Cc1ccc(C)c(N=Nc2c(O)ccc3ccccc23)c1: inactive

Per the records of this test, what outcome belongs to CN1CCC(=C2c3ccccc3C=Cc3ccccc32)CC1 ?
inactive

Here is the next compound: BrCc1ccc2c3c(cccc13)-c1ccccc1-2
active

Lookup Nc1ccc2c(=O)[nH]sc2c1
inactive

Origin of the recorded values: PubChem BioAssay AID1259407
